Tested on: MDCK-MDR^1 cells (P-glycoprotein)
Test Details: Bidirectional MDCK-MDR1 cell permeability
Assay type: in vitro ADME, canine
Measured Quantity: P-gp substrate status, absorptive vs secretory permeability

What does the record list as P-gp substrate status, absorptive vs secretory permeability for `Cc1cccc(Nc2nc(-c3ccc(-c4ccccc4)cc3)cs2)n1` ?
not substrates

What about `Cc1ccnc(Nc2nc(-c3ccc(-c4ccccn4)s3)cs2)c1` ?
not substrates

----------
Provide the recorded Cmax for the entries that follow.
Test Details: Single-dose pharmacokinetics in FVB mice (oral gavage, IV)
Experimental Context: female, FVB, mouse, plasma, po, 40 mg/kg
Respond numerically; units are ng/mL and should not be typed.

What does the record list as Cmax for Cc1ccnc(Nc2nc(-c3ccc(-c4ccccn4)s3)cs2)c1 [IND81] ?
152

What about Cc1cccc(Nc2nc(-c3ccc(-c4ccccc4)cc3)cs2)n1 [IND24] ?
569

What about C(=N\Nc1ccc(-c2cnco2)cc1)/c1ccncc1 [IND54304, reference compound] ?
220
